The measured values listed here are drawn from the NIST ThermoML archive (doi:10.1021/je900550v).

measurement-conditions: 299.4 K; 101.33 kPa; Liquid; Pulse-echo method
measured-attribute: speed of sound (m/s)

| compound | measured-attribute | reported-value |
| --- | --- | --- |
| C[NH2+]CCO.O=C[O-] [2-hydroxy-N-methylethanaminium formate] | speed of sound | 1812.9 |
| CCC(=O)[O-].C[NH2+]CCO [2-hydroxy-N-methylethanaminium propionate] | speed of sound | 1686.3 |
| CCCCC(=O)[O-].C[NH2+]CCO [2-hydroxy-N-methylethanaminium pentanoate] | speed of sound | 1544.8 |
| CC(C)C(=O)[O-].C[NH2+]CCO [2-hydroxy-N-methylethanaminium isobutyrate] | speed of sound | 1607.8 |
| CCCC(=O)[O-].C[NH2+]CCO [N-methyl-2-hydroxyethylammonium butanoate] | speed of sound | 1610.6 |

----------
measurement-conditions: 285.65 K; 101.33 kPa; Liquid; Vibrating tube method

| molecule | result-unit | mass density |
| --- | --- | --- |
| CCC(=O)[O-].C[NH2+]CCO [2-hydroxy-N-methylethanaminium propionate] | kg/m3 | 1079.42 |
| C[NH2+]CCO.O=C[O-] [2-hydroxy-N-methylethanaminium formate] | kg/m3 | 1135.23 |
| CCCC(=O)[O-].C[NH2+]CCO [N-methyl-2-hydroxyethylammonium butanoate] | kg/m3 | 1047.68 |
| CCCCC(=O)[O-].C[NH2+]CCO [2-hydroxy-N-methylethanaminium pentanoate] | kg/m3 | 1024.66 |
| CC(C)C(=O)[O-].C[NH2+]CCO [2-hydroxy-N-methylethanaminium isobutyrate] | kg/m3 | 1051.31 |
| CC(=O)[O-].C[NH2+]CCO [N-methyl-2-hydroxyethylammonium acetate] | kg/m3 | 1108.32 |

----------
measurement-conditions: 332.91 K; 101.33 kPa; Liquid; Vibrating tube method
Listed next: entries and their corresponding mass density.
measured-attribute: mass density (kg/m3)

| compound | measured-attribute | reported-value |
| --- | --- | --- |
| CC(=O)[O-].C[NH2+]CCO [N-methyl-2-hydroxyethylammonium acetate] | mass density | 1079.5 |
| CCC(=O)[O-].C[NH2+]CCO [2-hydroxy-N-methylethanaminium propionate] | mass density | 1048.19 |
| CCCCC(=O)[O-].C[NH2+]CCO [2-hydroxy-N-methylethanaminium pentanoate] | mass density | 992.415 |
| CCCC(=O)[O-].C[NH2+]CCO [N-methyl-2-hydroxyethylammonium butanoate] | mass density | 1015.43 |
| C[NH2+]CCO.O=C[O-] [2-hydroxy-N-methylethanaminium formate] | mass density | 1109.08 |
| CC(C)C(=O)[O-].C[NH2+]CCO [2-hydroxy-N-methylethanaminium isobutyrate] | mass density | 1020.44 |

----------
measurement-conditions: 292.9 K; 101.33 kPa; Liquid; Vibrating tube method
measured-attribute: mass density (kg/m3)

| molecule | result-unit | reported-value |
| --- | --- | --- |
| CC(C)C(=O)[O-].C[NH2+]CCO [2-hydroxy-N-methylethanaminium isobutyrate] | kg/m3 | 1046.68 |
| CCCCC(=O)[O-].C[NH2+]CCO [2-hydroxy-N-methylethanaminium pentanoate] | kg/m3 | 1019.78 |
| C[NH2+]CCO.O=C[O-] [2-hydroxy-N-methylethanaminium formate] | kg/m3 | 1131.18 |
| CCCC(=O)[O-].C[NH2+]CCO [N-methyl-2-hydroxyethylammonium butanoate] | kg/m3 | 1042.81 |
| CC(=O)[O-].C[NH2+]CCO [N-methyl-2-hydroxyethylammonium acetate] | kg/m3 | 1103.9 |
| CCC(=O)[O-].C[NH2+]CCO [2-hydroxy-N-methylethanaminium propionate] | kg/m3 | 1074.67 |

----------
measurement-conditions: 295.65 K; 101.33 kPa; Liquid
measured-attribute: viscosity (mPa·s)

| molecule | reported-value |
| --- | --- |
| CCCC(=O)[O-].C[NH2+]CCO [N-methyl-2-hydroxyethylammonium butanoate] | 352.2 |
| CCC(=O)[O-].C[NH2+]CCO [2-hydroxy-N-methylethanaminium propionate] | 256.14 |
| CCCCC(=O)[O-].C[NH2+]CCO [2-hydroxy-N-methylethanaminium pentanoate] | 273.03 |
| C[NH2+]CCO.O=C[O-] [2-hydroxy-N-methylethanaminium formate] | 23.22 |

----------
measurement-conditions: 296.4 K; 101.33 kPa; Liquid; Pulse-echo method
Listed next: entries and their corresponding speed of sound.
measured-attribute: speed of sound (m/s)

| molecule | measured-attribute | result-unit | reported-value |
| --- | --- | --- | --- |
| CCCCC(=O)[O-].C[NH2+]CCO [2-hydroxy-N-methylethanaminium pentanoate] | speed of sound | m/s | 1554.3 |
| CCC(=O)[O-].C[NH2+]CCO [2-hydroxy-N-methylethanaminium propionate] | speed of sound | m/s | 1695.2 |
| C[NH2+]CCO.O=C[O-] [2-hydroxy-N-methylethanaminium formate] | speed of sound | m/s | 1818.7 |
| CC(C)C(=O)[O-].C[NH2+]CCO [2-hydroxy-N-methylethanaminium isobutyrate] | speed of sound | m/s | 1616.3 |
| CCCC(=O)[O-].C[NH2+]CCO [N-methyl-2-hydroxyethylammonium butanoate] | speed of sound | m/s | 1620.1 |

----------
measurement-conditions: 327.9 K; 101.33 kPa; Liquid; Vibrating tube method
Listed next: entries and their corresponding mass density.
measured-attribute: mass density (kg/m3)

| compound | measured-attribute | result-unit | reported-value |
| --- | --- | --- | --- |
| C[NH2+]CCO.O=C[O-] [2-hydroxy-N-methylethanaminium formate] | mass density | kg/m3 | 1111.74 |
| CC(=O)[O-].C[NH2+]CCO [N-methyl-2-hydroxyethylammonium acetate] | mass density | kg/m3 | 1082.65 |
| CCCC(=O)[O-].C[NH2+]CCO [N-methyl-2-hydroxyethylammonium butanoate] | mass density | kg/m3 | 1018.95 |
| CCC(=O)[O-].C[NH2+]CCO [2-hydroxy-N-methylethanaminium propionate] | mass density | kg/m3 | 1051.61 |
| CCCCC(=O)[O-].C[NH2+]CCO [2-hydroxy-N-methylethanaminium pentanoate] | mass density | kg/m3 | 995.927 |
| CC(C)C(=O)[O-].C[NH2+]CCO [2-hydroxy-N-methylethanaminium isobutyrate] | mass density | kg/m3 | 1023.84 |

----------
measurement-conditions: 304.15 K; 101.33 kPa; Liquid; Vibrating tube method
Listed next: entries and their corresponding mass density.

| compound | mass density, kg/m3 |
| --- | --- |
| CC(C)C(=O)[O-].C[NH2+]CCO [2-hydroxy-N-methylethanaminium isobutyrate] | 1039.52 |
| C[NH2+]CCO.O=C[O-] [2-hydroxy-N-methylethanaminium formate] | 1124.89 |
| CCCCC(=O)[O-].C[NH2+]CCO [2-hydroxy-N-methylethanaminium pentanoate] | 1012.2 |
| CCC(=O)[O-].C[NH2+]CCO [2-hydroxy-N-methylethanaminium propionate] | 1067.4 |
| CC(=O)[O-].C[NH2+]CCO [N-methyl-2-hydroxyethylammonium acetate] | 1097.25 |
| CCCC(=O)[O-].C[NH2+]CCO [N-methyl-2-hydroxyethylammonium butanoate] | 1035.21 |

----------
measurement-conditions: 331.91 K; 101.33 kPa; Liquid; Pulse-echo method
Listed next: entries and their corresponding speed of sound.

| molecule | speed of sound / m/s |
| --- | --- |
| CCCCC(=O)[O-].C[NH2+]CCO [2-hydroxy-N-methylethanaminium pentanoate] | 1444.7 |
| CC(C)C(=O)[O-].C[NH2+]CCO [2-hydroxy-N-methylethanaminium isobutyrate] | 1515.5 |
| CCCC(=O)[O-].C[NH2+]CCO [N-methyl-2-hydroxyethylammonium butanoate] | 1508.8 |
| C[NH2+]CCO.O=C[O-] [2-hydroxy-N-methylethanaminium formate] | 1749.9 |
| CCC(=O)[O-].C[NH2+]CCO [2-hydroxy-N-methylethanaminium propionate] | 1589.5 |

----------
measurement-conditions: 318.16 K; 101.33 kPa; Liquid; Vibrating tube method
Numbers after ± are expanded uncertainties.
measured-attribute: mass density

| compound | measured-attribute | reported-value |
| --- | --- | --- |
| CCC(=O)[O-].C[NH2+]CCO [2-hydroxy-N-methylethanaminium propionate] | mass density | 1058.17 ± 2.2 kg/m3 |
| CC(=O)[O-].C[NH2+]CCO [N-methyl-2-hydroxyethylammonium acetate] | mass density | 1088.72 ± 2.2 kg/m3 |
| CC(C)C(=O)[O-].C[NH2+]CCO [2-hydroxy-N-methylethanaminium isobutyrate] | mass density | 1030.36 ± 2.2 kg/m3 |
| CCCC(=O)[O-].C[NH2+]CCO [N-methyl-2-hydroxyethylammonium butanoate] | mass density | 1025.72 ± 2.2 kg/m3 |
| C[NH2+]CCO.O=C[O-] [2-hydroxy-N-methylethanaminium formate] | mass density | 1117.1 ± 2.2 kg/m3 |
| CCCCC(=O)[O-].C[NH2+]CCO [2-hydroxy-N-methylethanaminium pentanoate] | mass density | 1002.69 ± 2.1 kg/m3 |
